Items are presented alongside their recorded MIC.
Tested on: S. aureus ATCC 33593 (Meth^R)
The figure you give is taken to be in µg/mL; do not add the unit.

Known results for compounds:
> print(dat)
                                   compound                            tgt  numeric.result
1  N=C(N)NCCSCc1ncccc1SC1=C(C(=O)O)N2C(=O)[C@@H](NC(=O)/C(=N\O)c3nc(N)sc3Cl)[C@H]2SC1  S. aureus ATCC 33593 (Meth^R)             0.5
2  NCCSCc1ncccc1SC1=C(C(=O)O)N2C(=O)[C@@H](NC(=O)/C(=N\O)c3nc(N)sc3Cl)[C@H]2SC1  S. aureus ATCC 33593 (Meth^R)               1
3  NCCSCc1ncccc1SC1=C(C(=O)O)N2C(=O)[C@@H](NC(=O)/C(=N\O)c3nsc(N)n3)[C@H]2SC1  S. aureus ATCC 33593 (Meth^R)               1
4  N=C(N)NCCSCc1ncccc1SC1=C(C(=O)O)N2C(=O)[C@@H](NC(=O)/C(=N\O)c3nsc(N)n3)[C@H]2SC1  S. aureus ATCC 33593 (Meth^R)               1
5  NCCSCc1ccncc1SC1=C(C(=O)O)N2C(=O)[C@@H](NC(=O)/C(=N\O)c3nc(N)sc3Cl)[C@H]2SC1  S. aureus ATCC 33593 (Meth^R)               1

Prompt line: // map NCCSCc1ccncc1SC1=C(C(=O)O)N2C(=O)[C@@H](NC(=O)/C(=N\O)c3nsc(N)n3)[C@H]2SC1 to recorded MIC (system: S. aureus ATCC 33593 (Meth^R))
Response line: 8

Prompt line: What do you get for C[C@@H](O)[C@H]1C(=O)N2C(C(=O)O)=C(SCCN=CN)C[C@H]12 [Imipenem, reference compound] ?
Response line: 32

Taken from patent EP1222194B1.
